Recorded values, source the supplement of paper PMC7156485.

# System: TDF;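 further: TDF denotes transformed human dermal fibroblasts of mesenchymal origin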
# method.notes: cell number relative to DMSO (% of DMSO); higher = more cells (less growth inhibition / toxicity)
# protocol.conditions: concentration: 10 µM; 24 h
test.readout: cell number
One number for each entry.

Example entries begin here.
CCCCC(C)C(OC(=O)CC(CC(=O)O)C(=O)O)C(CC(C)CCCCCCC(O)CC(O)C(C)N)OC(=O)CC(CC(=O)O)C(=O)O (stereo not drawn)    102
Cn1ncnc1COc1nn2c(-c3c(F)cccc3F)nnc2cc1C1CCC1    100
CN1C2CCC1CC(OC(=O)C(CO)c1ccccc1)C2 (stereo not drawn) [Hyoscyamine]    98
CCC1C2CC3C4N(C)c5ccccc5C45CC(C2C5O)N3C1O (stereo not drawn)    86.8

For every listed record, write down its cell number.
1. CC(=O)OC1CC2CCC3C(CCC4(C)C3CC([N+]3(C)CCCCC3)C4OC(C)=O)C2(C)CC1[N+]1(C)CCCCC1.[Br-].[Br-] (stereo not drawn) [Pancuronium.2Br]
2. CN(C)C(=O)Oc1cccc([N+](C)(C)C)c1.COS(=O)(=O)[O-]
3. CNCCc1ccc(O)c(O)c1.Cl [N-Methyldopamine hydrochloride]
4. CC1(C(=O)O)C2CCC(O2)C1(C)C(=O)O (stereo not drawn)
5. CC=C1CN2CCC34C(=C(CC=O)C1CC23)Nc1ccccc14 (stereo not drawn)
6. Cl.Oc1cc2c(cc1O)C1c3ccccc3CNC1CC2 (stereo not drawn) [Dihydrexidine hydrochloride]

1. 92
2. 103
3. 92.2
4. 13.6
5. 104
6. 118

Kindly give each listed record's cell number.
1. COc1ccc2c(c1)C13CCCCC1C(C2)N(C)CC3 (stereo not drawn)
2. CNCC(O)c1ccc(O)cc1 (racemic)
3. CC12CCC(O)CC1CCC1C2CCC2(C)C(C3=CC(=O)OC3)C(O)CC12O (stereo not drawn)

1: 103; 2: 111; 3: 73.1

###

# Test system: HCC1569;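 further: TDF is a line of transformed human dermal fibroblasts of mesenchymal origin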
# method.notes: H1.0 immunofluorescence intensity relative to DMSO (% of DMSO); higher = stronger H1.0 induction, active = 140 or more
# protocol.conditions: concentration: 10 µM; 24 h
test.readout: H1.0 immunofluorescence intensity
One number for each entry.

Study these solved cases before continuing.
CS(=O)(=O)O.Cc1c(C(=O)c2cccc3ccccc23)c2cccc3c2n1C(CN1CCOCC1)CO3 (stereo not drawn) [( R)-(+)-WIN 55,212-2 mesylate]    209
CCN1CC2(COC)CCC(OC)C34C5CC6(O)C(OC)CC(OC(C)=O)(C5C6C(=O)c5ccc(OC)cc5)C(C(OC)C23)C14 (stereo not given)    88.8
CCN1CC2(C)CCC(OC)C34C2C(OC(C)=O)C2(OCOC25CC(OC)C2CC3(O)C5C2OC)C14 (stereo not given)    96.9
CC(=O)C1CCC2C3CCC4CC(O)CCC4(C)C3C(=O)CC12C (stereo not given)    98.7
CN1C2CCC1CC(OC(=O)C(CO)c1ccccc1)C2.CN1C2CCC1CC(OC(=O)C(CO)c1ccccc1)C2.O=S(=O)(O)O (stereo not given) [Atropine sulfate]    88.9

Give H1.0 immunofluorescence intensity for each of the items listed below.
1. CCN(CC)C(=O)NC1C=C2c3cccc4[nH]cc(c34)CC2N(C)C1 (stereo not drawn) [S-(-)-Lisuride]
2. CCC(CO)NC(=O)C1C=C2c3cccc4c3c(cn4C)CC2N(C)C1.O=C(O)C=CC(=O)O (stereo not given) [Methysergide maleate]

93.6
97

Provide reported H1.0 immunofluorescence intensity for each item, in the same order as listed.
1. CCC(C(N)=O)N1CCCC1=O (stereo not given)
2. CC12C(=O)OC(=O)C1(C)C1CCC2O1 (stereo not given)
3. NC(=O)CN1CCCC1=O
4. Br.CCCN(CCC)C1CCc2cccc(O)c2C1 (stereo not drawn) [R-(+)-8-Hydroxy-DPAT hydrobromide]
5. CC(N)C(O)c1ccc(O)c(O)c1 (single isomer, unassigned; (-)) [(-)-alpha-Methylnorepinephrine]
6. C=C1C(C)C2C(Cc3ccccc3)NC(=O)C23C(OC(C)=O)C=CC(C)(O)C(=O)C(C)CC=CC3C1O (stereo not given)
7. COC1C=C2CCN(C)C2C2c3cc4c(cc3C(=O)OC12)OCO4.O=[N+]([O-])O (stereo not given) [Ungerine nitrate]
8. CC12CCC(O)CC1CCC1C2CCC2(C)C(c3ccc(=O)oc3)CCC12O (stereo not given)

1: 101; 2: 187; 3: 103; 4: 96.5; 5: 93.1; 6: 204; 7: 88.8; 8: 107

Hey, can you go through the list below and give me H1.0 immunofluorescence intensity for every item?
1. COc1ccc(CCN2CCC(Nc3nc4ccccc4n3Cc3ccc(F)cc3)CC2)cc1
2. C=CCc1cc(OC)c2c(c1)OCO2

1: 143; 2: 81.5

Your task in this section: give H1.0 immunofluorescence intensity for each listed record.
1. CC(C)C1C(=O)OC2CCN3CC=C(COC(=O)C(C)(O)C1(C)O)C23 (stereo not given)
2. CCN1CC2(C)CCC(O)C34C5CC6C(OC)CC(O)(C(CC23)C14)C5C6O (stereo not given)
3. Br.NC1CCc2cc(O)c(O)cc2C1 (stereo not given) [6,7-ADTN hydrobromide]
4. COC(C(=O)C(O)C(C)O)C1Cc2cc3cc(OC4CC(OC5CC(O)C(OC)C(C)O5)C(OC(C)=O)C(C)O4)c(C)c(O)c3c(O)c2C(=O)C1OC1CC(OC2CC(OC3CC(C)(O)C(OC(C)=O)C(C)O3)C(O)C(C)O2)C(O)C(C)O1 (stereo not given)

[89.8, 99.8, 92.4, 196]

Required: H1.0 immunofluorescence intensity, one value per compound below.
1. c1ccc2c(c1)[nH]c1cnccc12
2. CC(NC(C)(C)C)C(=O)c1cccc(Cl)c1 (stereo not given)
3. CC(C)N(CCC(C(N)=O)(c1ccccc1)c1ccccn1)C(C)C (stereo not given) [Disopyramide]
4. COC(C)C(O)(C(=O)OCC1=CCN2CCC(O)C12)C(C)C (stereo not given)

[92, 116, 98.5, 90.6]

###

Task for the reader: assign each of the following molecules its reported cell number.
# Tested on: TDF;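 further: TDF denotes transformed human dermal fibroblasts of mesenchymal origin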
# method.notes: cell number relative to DMSO (% of DMSO); higher = more cells (less growth inhibition / toxicity)
# protocol.conditions: concentration: 10 µM; 24 h
Answers are plain numbers.

O=[N+]([O-])C=Cc1ccc2c(c1)OCO2    33.2
CCCCCC=CCC=CCC=CC=CC(CCCC(=O)O)OO (stereo not given)    100
NC1(C(=O)O)CCC(C(=O)O)C1 (mixture of isomers)    106
CCN1CC2(C)CCC(OC)C34C2C(OC(C)=O)C2(OCOC25CC(OC)C2CC3(O)C5C2OC)C14 (stereo not given)    104
CCCN(CCC)C1Cc2cc(OC)c(OC)cc2C1.O=C(O)C=CC(=O)O    107
O=P1(N(CCCl)CCCl)NCCCO1 (stereo not given) [Cyclophosphamide]    95.5

Could you tell me cell number for each of these molecules? They are listed below.
1. CNc1ccc2oc(CC3OC4(CCC3C)OC(C(C)C(=O)c3ccc[nH]3)C(C)CC4C)nc2c1C(=O)O (stereo not given)
2. CC(C)(C)NCC(O)c1ccccc1Cl (stereo not given)
3. COc1ccc2c(c1)C13CCCCC1C(C2)NCC3.Cl (stereo not given) [3-Methoxy-morphanin hydrochloride]
4. CC1OC(=O)C2CC3CCCCC3C(C=CC3CCCC(C)N3C)C12 (single isomer, unassigned; (+)) [(+)-Himbacine]

1. 49.7
2. 101
3. 107
4. 112

###

Exercise: for every item that follows, state its recorded H1.0 immunofluorescence intensity.
# Test system: HCC1569;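 further: TDF is a line of transformed human dermal fibroblasts of mesenchymal origin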
# method.notes: H1.0 immunofluorescence intensity relative to DMSO (% of DMSO); higher = stronger H1.0 induction, active = 140 or more
# protocol.conditions: concentration: 10 µM; 24 h
Answers are plain numbers.

Recorded results for 10 molecules are shown here.
Cl.NCC(O)c1ccc(O)cc1 (racemic)    93.1
COc1ccc2c(c1O)-c1c(OC)c(OC)cc3c1C(C2)N(C)CC3.Cl (single isomer, unassigned; (+)) [(+)-Isocorydine hydrochloride]    91.4
CN1CC(CO)CC2c3cccc4[nH]cc(c34)CC21 (stereo not given) [9,10-Dihydrolysergol]    92.7
CSC(=S)NCc1c[nH]c2ccccc12    99.7
NC(CP(=O)(O)O)C(=O)O (racemic)    91.4
CC(Cc1ccc(OCC(=O)[O-])cc1)NCC(O)c1cccc(Cl)c1.[Na+] (stereo not given)    88.6
CN(C)CCc1ccc(O)cc1.CN(C)CCc1ccc(O)cc1.O=S(=O)(O)O [Hordenine sulfate]    99.9
CC(=CC=CC(C)C(=O)O)C1CNC(C(=O)O)C1CC(=O)O (stereo not given)    86.3
NC(CCCCCP(=O)(O)O)C(=O)O (stereo not drawn) [D(-)-2-Amino-7-phosphonoheptanoic acid]    99.2
CC(N)Cc1c[nH]c2ccc(OCc3cccs3)cc12.Cl (stereo not given)    92.8

Provide H1.0 immunofluorescence intensity values for the following items, in order.
1. COc1cc(=O)oc(C=CC=CC=CC(C)=CC2(C)OC(C)C(C)(O)C2O)c1C (stereo not given)
2. CC(=O)[C@H]1CC[C@H]2[C@@H]3CC[C@H]4C[C@](C)(O)CC[C@]4(C)[C@H]3CC[C@]12C [(3alpha,5alpha)-3-hydroxy-3-methylpregnan-20-one]
3. CS(=O)(=O)O.O.Oc1ccc2c3c1OC1c4oc5ccccc5c4CC4(O)C(C2)N(CC2CC2)CCC314 (stereo not given) [Naltriben methanesulfonate hydrate]
4. O=C(NCCN1CCC2(CC1)C(=O)NCN2c1cccc(F)c1)c1ccc(F)c(F)c1
5. COc1cc(C2c3cc4c(cc3C(O)C3COC(=O)C23)OCO4)cc(OC)c1OC (stereo not given)

1. 77.4
2. 111
3. 119
4. 107
5. 128
